Assay info: PK and tissue distribution after single oral administration in Ba/F3-EPOR-JAK2^V617F tumor-bearing mice
Format: in vivo
Protocol conditions: BALB/c nude, mouse, stomach, oral, 30 mg/kg; single; 2 h; read-out: FM concentration, Stomach
Observation type: concentration at 2 h

Chem smiles | Recorded result
Cc1cnc(Nc2ccc(N3CCC(N(C)CCO)CC3)c(F)c2)nc1-c1cnn(C(C)C)c1 | 30500 ng/g

###

Assay info: PK and tissue distribution after repeated oral administration in Ba/F3-EPOR-JAK2^V617F tumor-bearing mice
Type: in vivo
Protocol conditions: BALB/c nude, mouse, lung, oral, 30 mg/kg; repeated; 8 h; read-out: FM concentration, Lung
Observation type: concentration at 8 h (ng/g)

Chem smiles | Recorded result
Cc1cnc(Nc2ccc(N3CCC(N(C)CCO)CC3)c(F)c2)nc1-c1cnn(C(C)C)c1 | 1450

Reference source for all entries: paper PMC8901636
